Kindly supply the reported Geometric Mean MIC, Vanco^s Strains values for the records listed here.
Tested on: vancomycin-susceptible (Vanco^s) E. faecium and E. faecalis
Assay method text: Susceptibility of vancomycin-susceptible enterococci, agar-dilution MIC
Assay type: cell-based
Assay context: n = 34 strains; end points read after 24-hour incubation
One number for each entry, in µg/mL.

Some solved entries appear below for comparison.
CCN(CC)c1ccc(CNC2(C)CC(OC3C(Oc4c5cc6cc4Oc4ccc(cc4Cl)C(OC4CC(C)(N)C(O)C(C)O4)C4NC(=O)C(NC(=O)C6NC(=O)C(CC(N)=O)NC(=O)C(NC(=O)C(CC(C)C)NC)C(O)c6ccc(c(Cl)c6)O5)c5ccc(O)c(c5)-c5c(O)cc(O)cc5C(C(=O)O)NC4=O)OC(CO)C(O)C3O)OC(C)C2O)cc1 (centres unmarked): 0.73
CN[C@H](CC(C)C)C(=O)N[C@H]1C(=O)N[C@@H](CC(N)=O)C(=O)N[C@H]2C(=O)N[C@H]3C(=O)N[C@H](C(=O)N[C@H](C(=O)O)c4cc(O)cc(O)c4-c4cc3ccc4O)[C@H](O[C@H]3C[C@](C)(N)[C@@H](O)[C@H](C)O3)c3ccc(c(Cl)c3)Oc3cc2cc(c3O[C@@H]2O[C@H](CO)[C@@H](O)[C@H](O)[C@H]2O[C@H]2C[C@](C)(N)[C@@H](O)[C@H](C)O2)Oc2ccc(cc2Cl)[C@H]1O [Compound A82846B, A82846B, reference compound]: 0.51
CNC(CC(C)C)C(=O)NC1C(=O)NC(CC(N)=O)C(=O)NC2C(=O)NC3C(=O)NC(C(=O)NC(C(=O)O)c4cc(O)cc(O)c4-c4cc3ccc4O)C(OC3CC(C)(N)C(O)C(C)O3)c3ccc(c(Cl)c3)Oc3cc2cc(c3OC2OC(CO)C(O)C(O)C2OC2CC(C)(NCc3ccc(Br)cc3)C(O)C(C)O2)Oc2ccc(cc2Cl)C1O (centres unmarked): 0.67

For each listed entry, give its Geometric Mean MIC, Vanco^s Strains.
1. CCCCCCCCN[C@@]1(C)C[C@H](O[C@H]2[C@H](Oc3c4cc5cc3Oc3ccc(cc3Cl)[C@@H](O[C@H]3C[C@](C)(N)[C@@H](O)[C@H](C)O3)[C@@H]3NC(=O)[C@H](NC(=O)[C@@H]5NC(=O)[C@H](CC(N)=O)NC(=O)[C@H](NC(=O)[C@@H](CC(C)C)NC)[C@H](O)c5ccc(c(Cl)c5)O4)c4ccc(O)c(c4)-c4c(O)cc(O)cc4[C@@H](C(=O)O)NC3=O)O[C@H](CO)[C@@H](O)[C@@H]2O)O[C@@H](C)[C@@H]1O
2. CNC(CC(C)C)C(=O)NC1C(=O)NC(CC(N)=O)C(=O)NC2C(=O)NC3C(=O)NC(C(=O)NC(C(=O)O)c4cc(O)cc(O)c4-c4cc3ccc4O)C(OC3CC(C)(N)C(O)C(C)O3)c3ccc(c(Cl)c3)Oc3cc2cc(c3OC2OC(CO)C(O)C(O)C2OC2CC(C)(NCC(c3ccccc3)c3ccccc3)C(O)C(C)O2)Oc2ccc(cc2Cl)C1O (centres unmarked)

Response:
1. 0.73
2. 1.7

From: patent US5591714A
